- Tested on: CSNK1A1L;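 note: KINOMEscan kinase panel screen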
- Condition Summary: concentration: 1 μM, replicates: in singlicate; n = 1
Below, each entry is listed with its recorded %Inh.
Give the quantity in %, number only.

Recorded %Inh, per entry:
CCc1ccnc(/C=C/c2n[nH]c3cc(Sc4ccccc4C(=O)NC)ccc23)c1    0
Cc1ccc(C(=O)NCC(N)=O)cc1-n1c(C)cc(OCc2ccc(F)cc2F)c(Br)c1=O    26
Cc1nnc(-c2ccc(C)c(-c3ccc(C(=O)Nc4ccc(NS(C)(=O)=O)cc4)cc3)c2)o1 [GW702865]    0

Exercise: Tell me the measured %Inh of C[C@@H](Oc1cc(-n2cnc3ccc(NC(=O)NC(C)(C)C)cc32)sc1C(N)=O)c1ccccc1Cl [GSK346294] , please.
Key: 6

Values compiled from paper PMC5540273.
